- EXPERIMENTAL_DETAILS: Toxicity in human RBC assessed as hemolysis at 50 uM at 40 degC in presence of 10 uM ferriprotoporphyrin 9
- Type: cell-based, Erythrocyte
- CONDITION_INFO: human red blood cells (RBC), read-out: Activity
MEASURED_ENDPOINT: hemolysis at 50 µM (%)
One number for each entry, in %.

Some molecules with known hemolysis at 50 µM results, for comparison:
Clc1ccc2c(NC[C@@H]3CCCN4CCCC[C@H]34)ccnc2c1 ... 28
Clc1ccc2c(N[C@H]3CCCN4CCCC[C@H]34)ccnc2c1 ... 50

Could you now consider this next molecule?
Determine its reported hemolysis at 50 µM: CCN(CC)CCCC(C)Nc1ccnc2cc(Cl)ccc12 (stereo not drawn) [CHLOROQUINE]
84

* * *

- EXPERIMENTAL_DETAILS: Vacuolar accumulation ratio of the compound at pH 5.2
- Assay type: ADME
MEASURED_ENDPOINT: Ratio

Clc1ccc2c(NC[C@@H]3CCCN4CCCC[C@H]34)ccnc2c1 ... 22600

Turning now to a further record.
Identify measured Ratio associated with `Clc1ccc2c(N[C@H]3CCCN4CCCC[C@H]34)ccnc2c1`
14900

* * *

- EXPERIMENTAL_DETAILS: Distribution coefficient, log D of the compound at pH 7.4
- Format: physicochemical
- CONDITION_INFO: octanol/water
Please respond with reported logD for every item in the list.
Numbers only.

Clc1ccc2c(N[C@H]3CCCN4CCCC[C@H]34)ccnc2c1 ... 2.69

Fill in logD for record `Clc1ccc2c(NC[C@@H]3CCCN4CCCC[C@H]34)ccnc2c1`
2.26

* * *

- EXPERIMENTAL_DETAILS: Octanol-water partition coefficient, log P of the compound
- Format: physicochemical
MEASURED_ENDPOINT: logP
One number for each entry.

Clc1ccc2c(N[C@H]3CCCN4CCCC[C@H]34)ccnc2c1 ... 4.57

// fetch logP given entry `Clc1ccc2c(NC[C@@H]3CCCN4CCCC[C@H]34)ccnc2c1`
4.94
